Hey, just so you know, these numbers are from patent US20130029962A1.

# ASSAY_TARGET: vanilloid receptor 1 (VR1/TRPV1 receptor) (Homo sapiens)
# Construct: expressed in transfected cells; host or cells: CHO K1
# EXPERIMENT_DESCRIPTION: Functional testing on the vanilloid receptor 1 (VR1/TRPV1): FLIPR Ca2+ influx assay, displacement of capsaicin
# Assay type: cell-based, human being
# ASSAY_CONDITIONS: capsaicin (Cap) as stimulus; Ki from IC50 by Cheng-Prusoff; read-out: (f) Ki (human being) [nM] Cap
Each record is given T if its reported Ki is strictly below 30 nM. Records at or above 30 nM are given F.

Request: Please state whether Ki is below 30 nM for CC(C(=O)NCc1cc(C(C)(C)C)nn1-c1cccc(Cl)c1)c1cnc(C(=O)Nc2ccccc2)nc1 (centres unmarked)
Result: F

Request: Consider CC(C)(C)c1cc(CNC(=O)Nc2ccc(C(O)CO)nc2)n(-c2cccc(Cl)c2)n1 (centres unmarked) . Does its Ki lie strictly below 30 nM?
Result: T

Request: Strictly below 30 nM in Ki? `CC(C)(C)c1cc(CNC(=O)Nc2ccc(CCO)nc2)n(-c2cccc(F)c2)n1`
Result: F

Request: Please indicate whether the reported Ki of `CC(C)c1cccc(-n2nc(C(F)(F)F)cc2CNC(=O)Nc2ccc(N3CC(O)C3)nc2)c1` is strictly below 30 nM.
Result: T

Request: Hello, I'm reviewing records and need to know if Ki of `O=C(Cc1ccc(Cl)nc1)NCc1cc(C(F)(F)F)nn1-c1cccc(Cl)c1` is below 30 nM. Could you check?
Result: T

Request: Quick check: does CC(C(=O)NCc1cc(C(F)(F)F)nn1-c1cccc(Cl)c1)c1ccc(CCO)nc1 (centres unmarked) have Ki under 30 nM?
Result: T

Request: Is Ki of `COc1cccc(-n2nc(C(C)(C)C)cc2CNC(=O)Nc2ccc(CCO)nc2)c1` strictly below 30 nM?
Result: F

Request: Please check: Ki for CC(C(=O)NCc1cc(C(F)(F)F)nn1-c1cccc(Cl)c1)c1cccnc1 (centres unmarked) , strictly under 30 nM or not?
Result: T

###

# ASSAY_TARGET: vanilloid receptor 1 (VR1/TRPV1 receptor) (Homo sapiens, UniProt Q8NER1)
# Construct: expressed in transfected cells; host or cells: CHO K1
# Sequence (Q8NER1 whole entry): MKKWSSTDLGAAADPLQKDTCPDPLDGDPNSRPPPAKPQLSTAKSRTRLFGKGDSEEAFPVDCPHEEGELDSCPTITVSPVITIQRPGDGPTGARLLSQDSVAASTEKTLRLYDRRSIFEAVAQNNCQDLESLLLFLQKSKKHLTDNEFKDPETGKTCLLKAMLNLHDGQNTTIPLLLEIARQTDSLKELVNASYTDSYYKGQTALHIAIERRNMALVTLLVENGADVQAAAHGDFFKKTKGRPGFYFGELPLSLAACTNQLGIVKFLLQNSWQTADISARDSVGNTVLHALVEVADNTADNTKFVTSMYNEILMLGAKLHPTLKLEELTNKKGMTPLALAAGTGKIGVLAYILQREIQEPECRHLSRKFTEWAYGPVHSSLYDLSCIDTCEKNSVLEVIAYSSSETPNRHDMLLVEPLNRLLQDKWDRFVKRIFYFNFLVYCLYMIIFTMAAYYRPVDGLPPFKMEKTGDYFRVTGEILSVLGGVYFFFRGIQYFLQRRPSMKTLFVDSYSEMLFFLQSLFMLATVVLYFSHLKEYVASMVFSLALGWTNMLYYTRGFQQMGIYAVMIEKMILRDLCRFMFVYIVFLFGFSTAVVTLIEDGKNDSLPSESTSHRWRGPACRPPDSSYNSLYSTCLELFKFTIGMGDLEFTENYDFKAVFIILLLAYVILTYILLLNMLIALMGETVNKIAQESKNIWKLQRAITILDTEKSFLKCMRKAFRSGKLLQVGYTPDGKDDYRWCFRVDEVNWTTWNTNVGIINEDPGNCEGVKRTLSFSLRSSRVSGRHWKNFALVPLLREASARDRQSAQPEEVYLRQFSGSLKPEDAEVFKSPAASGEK
# EXPERIMENT_DESCRIPTION: Functional testing on the vanilloid receptor 1 (VR1/TRPV1): FLIPR Ca2+ influx assay, displacement of capsaicin
# Assay type: cell-based, human being
# ASSAY_CONDITIONS: 5 μM compound; capsaicin (Cap); human being; read-out: inhibition (as a percentage) at the concentration after @, Cap
EXPERIMENTAL_READOUT: inhibition at 5 µM (%)
Numeric answer only, unit % assumed.

Request: Fill in inhibition at 5 µM for CC(C(=O)NCc1cc(C(C)(C)C)nn1-c1cccc(Cl)c1)c1ccc(C(N)=O)nc1 (stereo not shown) [Example 56] tested with vanilloid receptor 1 (VR1/TRPV1 receptor) (Homo sapiens, UniProt Q8NER1).
Result: 77

Request: Quote inhibition at 5 µM with test system vanilloid receptor 1 (VR1/TRPV1 receptor) (Homo sapiens, UniProt Q8NER1) for O=C(NCc1cc(C(F)(F)F)nn1-c1cccc(Cl)c1)Nc1ccc(CCO)nc1 [Example 52]
Result: 45

Request: Consider the molecule O=C(Cc1ccccn1)NCc1cc(C(F)(F)F)nn1-c1cccc(Cl)c1 [Example 1] tested on vanilloid receptor 1 (VR1/TRPV1 receptor) (Homo sapiens, UniProt Q8NER1); state its inhibition at 5 µM.
Result: 31

Request: State inhibition at 5 µM (vanilloid receptor 1 (VR1/TRPV1 receptor) (Homo sapiens, UniProt Q8NER1)) of O=C(Cc1ccncc1)NCc1cc(C(F)(F)F)nn1-c1cccc(Cl)c1 [Example 11] .
Result: 79

Request: Enter measured inhibition at 5 µM, system vanilloid receptor 1 (VR1/TRPV1 receptor) (Homo sapiens, UniProt Q8NER1), for the molecule shown: O=C(Cc1ccncn1)NCc1cc(C(F)(F)F)nn1-c1cccc(Cl)c1 [Example 13]
Result: 30

Request: GET inhibition at 5 µM where system = vanilloid receptor 1 (VR1/TRPV1 receptor) (Homo sapiens, UniProt Q8NER1) and item = Cc1ncc(NC(=O)NCc2cc(C(F)(F)F)nn2-c2cccc(Cl)c2)cn1 [Example 19]
Result: 45

Request: Report its inhibition at 5 µM with vanilloid receptor 1 (VR1/TRPV1 receptor) (Homo sapiens, UniProt Q8NER1) as the test system: NC(=O)c1ccc(NC(=O)NCc2cc(C(F)(F)F)nn2-c2cccc(Cl)c2)cn1 [Example 26]
Result: 44

Request: Check vanilloid receptor 1 (VR1/TRPV1 receptor) (Homo sapiens, UniProt Q8NER1) data and give inhibition at 5 µM for COc1ccc(-n2nc(C(F)(F)F)cc2CNC(=O)Nc2ccc(CO)nc2)cc1C [Example 37] .
Result: 41

Request: Provide inhibition at 5 µM, tested on vanilloid receptor 1 (VR1/TRPV1 receptor) (Homo sapiens, UniProt Q8NER1), for CC(C(=O)NCc1cc(C(F)(F)F)nn1-c1cccc(Cl)c1)c1cnc(C(=O)Nc2ccccc2)nc1 (stereo not shown) [Example 62] .
Result: 53

Request: Check vanilloid receptor 1 (VR1/TRPV1 receptor) (Homo sapiens, UniProt Q8NER1) data and give inhibition at 5 µM for COCCN(C)c1ccc(NC(=O)NCc2cc(C(F)(F)F)nn2-c2cccc(Cl)c2)cn1 [Example 89] .
Result: 31

Request: Please report the measured inhibition at 5 µM for O=C(Cc1cccnc1)NCc1cc(C(F)(F)F)nn1-c1cccc(Cl)c1 [Example 7] tested on vanilloid receptor 1 (VR1/TRPV1 receptor) (Homo sapiens, UniProt Q8NER1).
Result: 51

Request: // output inhibition at 5 µM; input COc1ncc(NC(=O)NCc2cc(C(F)(F)F)nn2-c2cccc(Cl)c2)cn1 [Example 130] ; system vanilloid receptor 1 (VR1/TRPV1 receptor) (Homo sapiens, UniProt Q8NER1)
Result: 47

Request: Provide inhibition at 5 µM, tested on vanilloid receptor 1 (VR1/TRPV1 receptor) (Homo sapiens, UniProt Q8NER1), for CC(C(=O)NCc1cc(C(C)(C)C)nn1-c1cccc(Cl)c1)c1ccc(NC(=O)c2ccccc2)nc1 (stereo not shown) [Example 91] .
Result: 98

Request: Supply inhibition at 5 µM measured with vanilloid receptor 1 (VR1/TRPV1 receptor) (Homo sapiens, UniProt Q8NER1) for O=C(NCc1cc(C(F)(F)F)nn1-c1cccc(Cl)c1)Nc1cccnc1 [Example 9] .
Result: 72

Request: Jot down inhibition at 5 µM (vanilloid receptor 1 (VR1/TRPV1 receptor) (Homo sapiens, UniProt Q8NER1)) of COCCNc1ccc(NC(=O)NCc2cc(C(C)(C)C)nn2-c2cccc(Cl)c2)cn1 [Example 68] .
Result: 73

Request: Fill in: inhibition at 5 µM on vanilloid receptor 1 (VR1/TRPV1 receptor) (Homo sapiens, UniProt Q8NER1), entry O=C(NCc1cc(C(F)(F)F)nn1-c1cccc(Cl)c1)Nc1ccncc1 [Example 12]
Result: 85
